# tested_on: USP20 zf-UBP domain (Homo sapiens)
# Construct: USP20_UBP; Q9Y2K6; zf-UBP; 99; 6xHis-GST (N, cleaved yes); made in house; host or cells: Escherichia coli BL21-Gold (DE3)
# Sequence (Q9Y2K6 4-99): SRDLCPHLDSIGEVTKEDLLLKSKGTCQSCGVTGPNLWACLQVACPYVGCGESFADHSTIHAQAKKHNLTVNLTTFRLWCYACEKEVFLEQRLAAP
# protocol_notes: FP-monitored affinity measurements, USP20 zf-UBP
# Format: binding
# run_parameters: USP20_UBP; FP displacement by unlabelled peptide; read-out: KD
pKd: −log10 of the molar value.
quantity: pKd

// lookup pKd for YAQSKTQLEVRPV [ROBO1]
~4.09

So what does the record say about pKd for YTNSSGKMALNSPQPG [IRAG1] ?
5.04

Look up pKd for this substance: YPFQPGRMALESQSPG [USP19]
~3.79

Reported pKd for AQDSPIDFHLQSWMNN [CEP192] : what is it?
4.43

Which pKd is reported for this substance? ubiquitin C-terminus: ubiquitin C-terminal peptide (YLRLRGG) [reference compound]
< 4.30

# pKd lookup, item Ac-YEKVKRRLDLDID-NH2 [CCP110]
~3.30

* * *

So I've got a bunch of substances here, and I need their Average values.
# tested_on: USP20 DUSP2 domain (Homo sapiens)
# Construct: USP20_DUSP2; Q9Y2K6; DUSP2; 776; 894; 6xHis-GST (N, cleaved yes); made in house; host or cells: Escherichia coli BL21-Gold (DE3)
# Sequence (Q9Y2K6 with tags, fused parts or gaps): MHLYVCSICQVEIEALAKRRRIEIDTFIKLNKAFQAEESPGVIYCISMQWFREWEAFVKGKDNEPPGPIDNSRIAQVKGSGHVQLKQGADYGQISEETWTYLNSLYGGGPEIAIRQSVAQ
# protocol_notes: Peptide SPOT array, USP20 DUSP2
# Type: binding
# run_parameters: peptide SPOT array intensity minus background, sheet S5A, mean of 2 replicas
Lab note: record just the number, no unit beside it.

Look up Average for this substance: KMGSDEFDISPRISKQ [MGA]
138.987

// query Average value for entry ATLATAWSLVEAAGLD [BAHCC1_2]
-15.5033

Tell me the measured Average of KGHSRDFVLRRDLSAT [ZIC5] , please.
72.2767

Data request, read-out Average, for QLEEELFQLRQGPAGL [CCDC88B]
62.4217

// returns reported Average for input NGLDIAPRYFGFIKAC [SLC17A1]
7.792

# lookup: Average of IPMDDDFQLRSFDQLS [HIF1A]
35.4167

Name the reported Average value associated with the substance EAGLALRTDLQGEAQI [ZNF783]
-16.4483

Please give the measured Average for this substance: QPIDNSFDIQSRDCIS [MAP3K4]
40.0217

Data request, read-out Average, for Ac-SDDDLAWNIAPQGLQ-NH2 [GPR137B348-362]
1.607

# query: Average of entry EGTEVAFPLLVSHRSQ [EMSY]
-0.4433

Consider the substance EKEDSCFELLHRAVGH [ASB8] and give its measured Average.
-31.4033

* * *

# tested_on: USP20 DUSP2 domain (Homo sapiens)
# Construct: USP20_DUSP2; Q9Y2K6; DUSP2; 776; 894; 6xHis-GST (N, cleaved yes); made in house; host or cells: Escherichia coli BL21-Gold (DE3)
# protocol_notes: Peptide SPOT array, USP20 DUSP2;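 note: GST-tagged domain probed overnight at 4 °C on peptides made on cellulose membranes, bound protein detected via HRP-coupled anti-GST antibody, spot intensity from image analysis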
# Format: binding
# run_parameters: peptide SPOT array intensity minus background, sheet S5A, mean of 2 replicas
quantity: Average
Respond using a number only.

Query (sequence): EEDVLAFNLQHLATLA [BAHCC1_1] ; field requested: Average
-22.4783

For GGLTDLSSLIQAGQQF [SGTB] , what is its reported Average?
27.0767

Which Average is reported for this sequence? PDVVDDFQLQHRHGPG [MFSD2B]
-6.828

Dear colleague, I am looking for the recorded Average of the following sequence: KEQLSSFDISPREKLI [ARNTL2]
178.582

Name the recorded Average for LRHPSGWWLVENEDRQ [NOXO1] .
44.4667

Data request, read-out Average, for VKHPRFFALFEKHGGY [PPIP5K1]
-28.3983

# input sequence: MNFNVWNIKEMLSIPS [IHO1] ; wanted: its Average
-8.778

Entry RLQKDIWDIQMRSKSL [GBP2] : reported Average = ?
51.5267
